# Test system: HOP-18
# assay.notes: NCI tumour cell line growth inhibition, 48 h
Calls of active or inactive are those of the source. Rule as the data show it: active = GI50 up to about 1.1 µM and inactive = higher.
reported.property: GI50

Known GI50 results, listed for orientation:
compound	GI50
C/C(=N/NS(=O)(=O)c1c(C)cc(C)cc1C)c1cccc[n+]1[O-]	> 100 µM (inactive)
CCCCCCCCCC(=O)CC(=O)c1c(O)cccc1O	25.4 µM (inactive)
C[C@@H](C1CCC2C3C(=CC(=O)[C@@]21C)[C@H](C)[C@]1(CCC(=O)O1)C1OC31)[C@H]1C[C@]2(C)O[C@@](C)(O1)OC2(C)C (stereo not given in full)	> 100 µM (inactive)

IN: Tell me the measured GI50 of `Cc1cc(NS(=O)(=O)c2ccc(Nc3c4ccccc4nc4c(C(=O)Nc5ccc(S(=O)(=O)N=C(N)N)cc5)cccc34)cc2)no1` , please.
OUT: > 100 µM (inactive)

IN: Tell me the measured GI50 of COc1ccccc1OCC(COC(=O)Nc1ccccc1)OC(=O)Nc1ccccc1 (stereo not given) , please.
OUT: 59.3 µM (inactive)
